- SUBJECT_OF_TEST: BK2 receptor (Oryctolagus cuniculus, UniProt Q28642)
- Construct: when administered to an intact animal; from tissue; host or cells: whole rabbit (systemic arterial blood pressure), LPS-pretreated
- Sequence (Q28642 1-367): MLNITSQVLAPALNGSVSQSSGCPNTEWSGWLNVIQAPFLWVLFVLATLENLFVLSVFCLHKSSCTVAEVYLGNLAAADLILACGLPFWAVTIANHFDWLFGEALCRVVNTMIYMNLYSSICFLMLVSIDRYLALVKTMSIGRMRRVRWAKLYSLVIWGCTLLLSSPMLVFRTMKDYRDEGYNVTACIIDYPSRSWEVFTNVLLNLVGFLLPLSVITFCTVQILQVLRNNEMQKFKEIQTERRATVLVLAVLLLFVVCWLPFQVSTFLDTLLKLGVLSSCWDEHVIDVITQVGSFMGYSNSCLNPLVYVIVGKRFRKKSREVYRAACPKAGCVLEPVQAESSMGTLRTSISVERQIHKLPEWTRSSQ
- ASSAY_NAME: blood pressure response to BK2 agonist in LPS-pretreated rabbits
- Format: in vivo, rabbit
- Set-up: key: +: indicates complete blockade of the blood pressure response to the appropriate agonist; +/-: indicates partial blockade; -: indicates no observable effect at the dose indicated
- RUN_PARAMETERS: 3 μg kg^-1 min^-1; rabbits given LPS (10 μg) 20 hours before
Square brackets hold non-standard residues; d marks the D form. Peptide text beside a SMILES is read from it. Oic = O=C(O)[C@@H]1C[C@@H]2CCCC[C@@H]2N1; Hyp = O=C(O)[C@@H]1C[C@@H](O)CN1; dTic = O=C(O)[C@H]1Cc2ccccc2CN1; 2Thi = N[C@@H](Cc1cccs1)C(=O)O
QUANTITY_NAME: OBSERVED ANTAGONIST ACTIVITY BK2

MOLECULE	QUANTITY_NAME	REPORTED_RESULT
N=C(N)NCCC[C@@H](N)C(=O)N[C@@H](CCCNC(=N)N)C(=O)N1CCC[C@H]1C(=O)N1C[C@H](O)C[C@H]1C(=O)NCC(=O)N[C@@H](Cc1cccs1)C(=O)N[C@@H](CO)C(=O)N1Cc2ccccc2C[C@@H]1C(=O)N1[C@H](C(=O)O)C[C@@H]2CCCC[C@@H]21 [CP-0345] (H-[dR]RP[Hyp]G[2Thi]S[dTic][Oic]-OH; N-terminus and C-terminus assumed)	OBSERVED ANTAGONIST ACTIVITY BK2	+/-
N=C(N)NCCC[C@@H](N)C(=O)N[C@@H](CCCNC(=N)N)C(=O)N1CCC[C@H]1C(=O)N1C[C@H](O)C[C@H]1C(=O)NCC(=O)N[C@@H](Cc1ccccc1)C(=O)N[C@@H](CO)C(=O)N1Cc2ccccc2C[C@@H]1C(=O)N1[C@H](C(=O)O)C[C@@H]2CCCC[C@@H]21 [CP-0267] (HELM PEPTIDE1{[dR].R.P.[Hyp].G.F.S.[O=C([C@H]1Cc2ccccc2CN1[*:1])[*:2]].[O=C(O)[C@@H]1C[C@@H]2CCCC[C@@H]2N1[*:1]]}$$$$V2.0)	OBSERVED ANTAGONIST ACTIVITY BK2	-
CC(C)C[C@H](NC(=O)[C@@H](Cc1ccccc1)NC(=O)[C@H](CS)NC(=O)[C@H](Cc1ccccc1)NC(=O)CNC(=O)[C@@H]1C[C@@H](O)CN1C(=O)[C@@H]1CCCN1C(=O)[C@H](CCCNC(=N)N)NC(=O)[C@H](N)CCCNC(=N)N)C(=O)N[C@@H](CCCNC(=N)N)C(=O)O [CP-0126] (HELM PEPTIDE1{[dR].R.P.[Hyp].G.F.C.[dF].L.R}$$$$V2.0)	OBSERVED ANTAGONIST ACTIVITY BK2	+
CC(C)C[C@H](NC(=O)[C@@H]1CCCN1C(=O)[C@H](CO)NC(=O)[C@H](Cc1ccccc1)NC(=O)CNC(=O)[C@@H]1CCCN1C(=O)[C@@H]1CCCN1C(=O)[C@H](CCCNC(=N)N)NC(=O)[C@@H](N)CCCCN)C(=O)O [CP-0298, reference compound]	OBSERVED ANTAGONIST ACTIVITY BK2	-
